So I've got a bunch of molecules here, and I need their pIC50 values.
Target: Dihydroorotate dehydrogenase (quinone), mitochondrial (Homo sapiens, UniProt Q02127)
Sequence (Q02127 whole entry): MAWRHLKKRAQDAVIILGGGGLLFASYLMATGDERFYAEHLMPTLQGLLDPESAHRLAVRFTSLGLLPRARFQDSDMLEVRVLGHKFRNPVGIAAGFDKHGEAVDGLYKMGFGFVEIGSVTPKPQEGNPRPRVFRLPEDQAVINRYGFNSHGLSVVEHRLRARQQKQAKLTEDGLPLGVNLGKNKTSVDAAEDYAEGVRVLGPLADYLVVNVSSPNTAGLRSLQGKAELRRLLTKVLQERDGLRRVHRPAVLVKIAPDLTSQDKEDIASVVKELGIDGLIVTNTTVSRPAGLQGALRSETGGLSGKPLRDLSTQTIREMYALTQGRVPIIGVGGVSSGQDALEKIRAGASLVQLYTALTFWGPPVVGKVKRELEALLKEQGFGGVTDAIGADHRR
Assay: Inhibition of DHODH (unknown origin) using L-dihydroorotic acid as substrate preincubated for 30 mins followed by substrate addition measured every 10 mins in presence of decylubiquinone by DCIP dye based coupled enzyme assay
Entry type: numeric. Quantity: pIC50, the -log10 of concentration in molar units.

### Prompt Supply pIC50 value. Item: "Cc1nc2c(C(=O)O)cc(-c3ccc(-n4c(C)ccc4C)cc3)cc2[nH]1"
### Response 9.00

### Prompt Annotate the molecule "Cc1nc2c(C(=O)O)cc(-c3ccc(-c4ccccc4CN4CCCC4)cc3)cc2[nH]1" with its measured pIC50.
### Response 9.00

### Prompt Annotate the molecule "Cc1nc2c(C(=O)O)cc(-c3c(F)c(F)c(-c4ccccc4)c(F)c3F)cc2[nH]1" with its measured pIC50.
### Response 9.00

### Prompt Return reported pIC50. Input molecule: "Cc1cccc(-c2ccc(-c3cc(C(=O)O)c4nc(C)[nH]c4c3)cc2)c1"
### Response 9.00

### Prompt In one line, give reported pIC50 of the entry "Cc1nc2c(C(=O)O)cc(-c3ccc(-c4ccc(O)cc4)cc3)cc2[nH]1" .
### Response 8.00

### Prompt Return pIC50 (reported value) for this molecule: "Cc1nc2c(C(=O)O)cc(-c3c(F)c(F)c(-c4ccc(CN5CCOCC5)cc4)c(F)c3F)cc2[nH]1"
### Response 8.00

### Prompt Give the value of pIC50 reported for the following: "Cc1nc2c(C(=O)O)cc(-c3c(F)c(F)c(-c4ccc(CN5CCCC(F)(F)C5)cc4)c(F)c3F)cc2[nH]1"
### Response 9.00

### Prompt Look up and report measured pIC50 for this entry: "Cc1nc2c(C(=O)O)cc(-c3ccc(-c4ccccc4)cc3)cc2[nH]1"
### Response 8.00

Hello, the source for this data is ChEMBL document CHEMBL4725455, in case you need it.
